Exercise: state measured inhibition for each of the compounds provided.
- System: ROCK2 (rat)
- test: radiometric filter-binding kinase assay
- test-settings: compound 100.0 µM; ATP 20 µM; accession and sequence are those of the human protein
Answers are plain numbers, in %.

// solved cases for inhibition follow
{"columns": ["compound", "output-unit", "inhibition"],
 "data": [
  ["COc1ccc(NC(=S)Nc2cnc3[nH]cnn3c2=O)cn1", "%", 7],
  ["O=C(Nc1cnc2[nH]ccn2c1=O)c1ccccc1", "%", 11],
  ["CC(=O)Nc1nc2cnc(-c3c(C)cccc3C)cn2n1", "%", 0],
  ["O=C(Nc1cnc2[nH]cnn2c1=O)c1ccccc1", "%", 0],
  ["O=c1c(NC(=S)NCc2ccccc2)cnc2[nH]ccn12", "%", 13]
]}

Provide the reported inhibition of each entry below, same order.
1. CC(=O)Nc1nc2cnc(-c3ccccc3)cn2n1
2. Cc1cccc(C)c1-c1cn2nc(N)nc2cn1
3. O=c1cc(-c2ccccc2F)nc2[nH]ccn12
4. COc1ccc(-c2cc3c(=O)[nH]cnc3s2)cc1OC
5. Nc1cnc2c(-c3c(F)cccc3F)cccn2c1=O
6. Nc1nc2cnc(-c3ccccc3)cn2n1
7. CC(C)(C)Nc1c(COCc2ccccc2)nc2[nH]cnn12
8. CC1CN(c2nc3ccccn3c(=O)c2N)CC(C)O1 (stereo not given)

Reply:
1: 25; 2: 19; 3: 29; 4: 19; 5: 76; 6: 52; 7: 0; 8: 17

Provide the reported inhibition of each entry below, same order.
1. CC(C)(C)Nc1c(C2CC2)nc2[nH]cnn12
2. O=C(c1cccc(-c2cc3c(=O)[nH]cnc3s2)c1)N1CCOCC1

Reply:
2
39

* * *

- target: AURKB (human) (UniProt Q96GD4)
- Sequence (Q96GD4 whole entry, looked up): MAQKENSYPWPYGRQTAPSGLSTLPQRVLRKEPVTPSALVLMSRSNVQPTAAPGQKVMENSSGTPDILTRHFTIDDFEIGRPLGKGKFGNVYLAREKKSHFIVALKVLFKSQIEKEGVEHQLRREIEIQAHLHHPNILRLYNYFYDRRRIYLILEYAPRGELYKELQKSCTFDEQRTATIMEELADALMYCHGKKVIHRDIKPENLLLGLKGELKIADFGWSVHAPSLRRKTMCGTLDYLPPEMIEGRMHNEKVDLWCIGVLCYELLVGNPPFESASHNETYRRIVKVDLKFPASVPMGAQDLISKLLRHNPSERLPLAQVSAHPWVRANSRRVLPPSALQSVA
- test: radiometric filter-binding kinase assay
- test-settings: compound 100.0 µM; ATP 20 µM
experimental-readout: inhibition (%)
One number for each entry, in %.

{"columns": ["structure", "output-unit", "observed-result"],
 "data": [
  ["O=c1cc(-c2ccccc2F)nc2[nH]ccn12", "%", 0],
  ["COc1ccc(NC(=S)Nc2cnc3[nH]cnn3c2=O)cn1", "%", 0],
  ["O=C(c1cccc(-c2cc3c(=O)[nH]cnc3s2)c1)N1CCOCC1", "%", 6],
  ["Cc1cccc(C)c1-c1cn2nc(N)nc2cn1", "%", 29]
]}

Provide the reported inhibition of each entry below, same order.
1. O=C(Nc1cnc2[nH]cnn2c1=O)c1ccccc1
2. CC(C)(C)Nc1c(COCc2ccccc2)nc2[nH]cnn12

Reply:
1. 0
2. 12

* * *

- target: IKBKE (human) (UniProt Q14164)
- Sequence (Q14164 whole entry, looked up): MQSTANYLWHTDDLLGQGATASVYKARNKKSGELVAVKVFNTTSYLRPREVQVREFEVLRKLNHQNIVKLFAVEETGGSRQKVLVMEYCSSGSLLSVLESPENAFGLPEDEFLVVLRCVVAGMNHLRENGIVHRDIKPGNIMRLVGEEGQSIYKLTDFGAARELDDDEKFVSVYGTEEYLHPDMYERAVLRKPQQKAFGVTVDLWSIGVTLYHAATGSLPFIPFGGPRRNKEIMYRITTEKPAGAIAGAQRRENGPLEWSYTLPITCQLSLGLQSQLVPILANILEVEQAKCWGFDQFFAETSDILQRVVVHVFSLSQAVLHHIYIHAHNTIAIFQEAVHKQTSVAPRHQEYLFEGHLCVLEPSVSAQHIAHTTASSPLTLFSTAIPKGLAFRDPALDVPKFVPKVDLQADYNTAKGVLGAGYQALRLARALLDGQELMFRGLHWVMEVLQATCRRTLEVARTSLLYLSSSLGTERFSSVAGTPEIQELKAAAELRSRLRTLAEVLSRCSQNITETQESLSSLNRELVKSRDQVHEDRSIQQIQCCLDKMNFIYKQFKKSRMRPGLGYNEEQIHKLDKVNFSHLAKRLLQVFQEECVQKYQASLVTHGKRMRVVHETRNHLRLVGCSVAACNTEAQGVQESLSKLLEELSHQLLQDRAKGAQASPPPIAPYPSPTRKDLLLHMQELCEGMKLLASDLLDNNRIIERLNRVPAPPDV
- test: radiometric filter-binding kinase assay
- test-settings: compound 100.0 µM; ATP 50 µM
Exercise: state measured inhibition for each of the compounds provided.
Give bare numbers, in %.

// solved cases for inhibition follow
{"columns": ["compound", "experimental-readout", "observed-result"],
 "data": [
  ["CC1CN(c2nc3ccccn3c(=O)c2N)CC(C)O1 (stereo not given)", "inhibition", 0],
  ["O=c1cc(-c2ccccc2F)nc2[nH]ccn12", "inhibition", 22],
  ["CC(=O)Nc1nc2cnc(-c3ccccc3)cn2n1", "inhibition", 23],
  ["CC(=O)Nc1nc2cnc(-c3c(C)cccc3C)cn2n1", "inhibition", 0]
]}

Provide the reported inhibition of each entry below, same order.
1. CC(C)(C)Nc1c(COCc2ccccc2)nc2[nH]cnn12
2. COc1ccc(-c2cc3c(=O)[nH]cnc3s2)cc1OC
3. CC(C)(C)Nc1c(C2CC2)nc2[nH]cnn12
4. Cc1cccc(C)c1-c1cn2nc(N)nc2cn1

Reply:
1. 0
2. 32
3. 0
4. 28
